Molecular target: human Glucagon receptor (GCGR) (human, UniProt P47871 26-477)
Test: cell-based or functional assay
*1 amine or outer side, *2 acyl side, *3 side chain or, on linkers, in order; H or OH if unused. Bridges are numbered along the chain shown (N, C = ends). Primed or numbered codes have the meaning given here. Where no end group is shown, it is not given here. Side-chain parts run from the residue outwards. [ ]: non-standard residue; d: D form. The star is where a group is joined. dpeg″ = spacer —[CO(CH2)O(CH2)2O(CH2)NH]—, O=C(COCCOCN[*:1])[*:2]; dpeg = —[CO(CH2)O(CH2)2O(CH2)NH]— spacer, O=C(COCCOCN[*:1])[*:2]; C20 diacid = O=C(O)CCCCCCCCCCCCCCCCCCC(=O)*; γGlu = O=C(O)[C@H](CCC(=O)[*:2])N[*:1]; Aib = CC(C)(N)C(=O)O
Property label: pEC50, cAMP accumulation

Take a look at these entries with their results.
| Binder | pEC50, cAMP accumulation |
| --- | --- |
| YSHGTFTSDYSKYLDK([γGlu-γGlu-dpeg-C20 diacid])KYAQEF[Aib]QWLEDEPSSGAPPPS-OH [Compound A7] | 10.7 pEC50 (-log M) |
| YSHGTFTSDYSKYLDK([γGlu-γGlu-dpeg″-C20 diacid])KYAEKFVKWLENEPSSGAPPPS-OH (lactam 20-24) [Compound A27] | 12 pEC50 (-log M) |
| YSHGTFTSDYSKYLDK([γGlu-γGlu-dpeg″-C20 diacid])KYAEKFVKWLEKEPSSGAPPPS-OH (lactam 20-24) [Compound A26] | 11.1 pEC50 (-log M) |

Problem: Recall and state the measured pEC50, cAMP accumulation for YSHGTFTSDYSKYLDK([γGlu-γGlu-dpeg-C20 diacid])KYAQEFV[Aib]WLEKEPSSGAPPPS-OH [Compound A20] .
Result: 12.1 pEC50 (-log M)

Problem: Complete the entry with pEC50, cAMP accumulation for YSHGTFTSDYSKYLDK([γGlu-γGlu-dpeg″-C20 diacid])KYAEKFVKWLEDEPSSGEPPPS-OH (lactam 20-24) [Compound A31]
Result: 11.9 pEC50 (-log M)
